molecular target: UniProt:P26358; assay: DNMT1 biochemical activity, breaklight assay and/or SPA assay; conditions: binned activity in either the breaklight or the SPA assay
Sequence (P26358 whole entry, looked up): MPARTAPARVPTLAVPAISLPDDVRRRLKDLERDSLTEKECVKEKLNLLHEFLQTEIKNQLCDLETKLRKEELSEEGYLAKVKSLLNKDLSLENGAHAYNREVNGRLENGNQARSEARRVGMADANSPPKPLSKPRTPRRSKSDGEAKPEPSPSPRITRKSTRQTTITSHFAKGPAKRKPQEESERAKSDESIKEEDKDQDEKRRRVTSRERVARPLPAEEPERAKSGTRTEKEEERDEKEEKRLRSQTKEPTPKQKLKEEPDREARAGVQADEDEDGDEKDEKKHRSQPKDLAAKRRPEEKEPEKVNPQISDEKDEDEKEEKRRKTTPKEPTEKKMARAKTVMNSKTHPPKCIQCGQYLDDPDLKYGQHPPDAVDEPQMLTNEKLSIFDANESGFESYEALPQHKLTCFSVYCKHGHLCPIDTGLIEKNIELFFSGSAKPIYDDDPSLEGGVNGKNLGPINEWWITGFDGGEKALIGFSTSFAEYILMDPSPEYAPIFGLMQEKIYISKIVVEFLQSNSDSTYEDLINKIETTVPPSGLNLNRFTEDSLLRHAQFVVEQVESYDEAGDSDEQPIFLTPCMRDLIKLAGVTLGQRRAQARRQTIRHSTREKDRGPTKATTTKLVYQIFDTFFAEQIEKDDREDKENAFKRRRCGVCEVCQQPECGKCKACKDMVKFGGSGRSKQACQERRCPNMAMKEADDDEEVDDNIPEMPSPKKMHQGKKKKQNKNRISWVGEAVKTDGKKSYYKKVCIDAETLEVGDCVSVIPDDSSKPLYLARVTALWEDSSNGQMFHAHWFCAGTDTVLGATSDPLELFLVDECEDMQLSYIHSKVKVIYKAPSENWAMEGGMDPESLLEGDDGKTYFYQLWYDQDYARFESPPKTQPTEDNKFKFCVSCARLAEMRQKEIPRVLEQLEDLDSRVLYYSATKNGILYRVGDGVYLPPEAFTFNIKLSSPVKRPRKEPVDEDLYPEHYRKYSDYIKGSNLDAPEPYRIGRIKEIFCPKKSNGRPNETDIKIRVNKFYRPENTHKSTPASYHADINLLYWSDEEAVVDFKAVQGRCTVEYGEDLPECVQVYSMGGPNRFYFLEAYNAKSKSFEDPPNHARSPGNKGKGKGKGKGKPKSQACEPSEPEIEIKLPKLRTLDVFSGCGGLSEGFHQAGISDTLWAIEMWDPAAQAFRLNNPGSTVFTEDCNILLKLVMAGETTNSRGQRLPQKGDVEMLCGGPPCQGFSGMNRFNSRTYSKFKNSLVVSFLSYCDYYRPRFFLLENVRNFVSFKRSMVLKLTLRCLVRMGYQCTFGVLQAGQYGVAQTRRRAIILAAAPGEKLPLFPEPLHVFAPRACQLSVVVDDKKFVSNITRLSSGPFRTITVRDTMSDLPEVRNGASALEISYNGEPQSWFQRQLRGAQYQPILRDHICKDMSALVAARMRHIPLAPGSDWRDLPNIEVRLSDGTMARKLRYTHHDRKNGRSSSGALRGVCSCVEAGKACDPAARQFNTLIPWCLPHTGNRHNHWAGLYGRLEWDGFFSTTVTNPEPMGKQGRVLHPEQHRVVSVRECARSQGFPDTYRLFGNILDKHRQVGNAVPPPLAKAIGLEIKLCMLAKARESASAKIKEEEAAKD
recordedEndpoint: DNMT1 BioChemical (pIC50 category)

1. CCc1c(C#N)c(SCc2ccc(N(C)S(C)(=O)=O)cc2)nc(N(C)CCNCCF)c1C#N	D (Category D: ≥6.5)
2. CCc1c(C#N)c(SC(C(N)=O)c2ccccc2)nc(N2CCC(NCC(C)(C)OC)CC2)c1C#N (centres unmarked)	D (Category D: ≥6.5)
3. CCc1c(C#N)c(SC(C(N)=O)c2ccccc2)nc(N2CCCN(C)CC2)c1C#N (centres unmarked)	D (Category D: ≥6.5)
4. CCc1c(C#N)c(SC(C(N)=O)c2ccccc2)nc(N2CC[C@@H](N(C)C)C2)c1C#N (some centres unmarked)	D (Category D: ≥6.5)
5. CC1(N)CCN(c2nc(SC(C(N)=O)c3ccccc3)c(C#N)c(C3CC3)c2C#N)CC1 (centres unmarked)	D (Category D: ≥6.5)
6. CCc1c(C#N)c(SCc2ccc(N(C)S(C)(=O)=O)cc2)nc(N2CCC(N3CCCC3)CC2)c1C#N	D (Category D: ≥6.5)
7. CCc1c(C#N)c(SC(C(N)=O)c2ccccc2)nc(N2CCC(NCC(N)=O)CC2)c1C#N (centres unmarked)	D (Category D: ≥6.5)

Sample CCc1c(C#N)c(SC(C(N)=O)c2ccccc2)nc(N(C)CC(=O)N2CCO[C@@H](CO)C2)c1C#N (some centres unmarked) ; DNMT1 BioChemical (pIC50 category) observed: D (Category D: ≥6.5)

---

Catalogue of EC50 readings, one per entry.
system: erythroid progenitor cells (EPCs); assay: Fetal hemoglobin (HbF) ELISA in day 7 erythroid progenitor cells; assay type: cell-based, human; conditions: Homo sapiens, Erythroid progenitor cell, HbF ELISA, day 7 EPCs, 5 days; read-out: EPC ELISA (pEC50 category) (converted);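 also: for fetal hemoglobin induction normalized to vehicle-treated cells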
Structures can show the parent of a compound that is named as a salt.

1) COc1c(C#N)c(SC(C(N)=O)c2ccccc2)nc(N2CCCN(CCO)CC2)c1C#N (stereo not shown)	316 to 1000 nM
2) CCc1c(C#N)c(SC(C(N)=O)c2ccccc2)nc(N2CCN(CCO)C(=O)C2)c1C#N (stereo not shown)	1000 to 31600 nM
3) CCc1c(C#N)c(SC(C(N)=O)c2ccccc2)nc(N(C)CC(=O)N2C[C@@H](O)[C@@H](O)C2)c1C#N (stereo partly shown)	316 to 1000 nM
4) CCc1c(C#N)c(C)nc(SCc2ccc(CNC(C)=O)cc2)c1C#N	> 31600 nM
5) CCc1c(C#N)c(SC(C(N)=O)c2ccccc2)nc(N(C)CCN2CCOCC2)c1C#N (stereo not shown)	316 to 1000 nM

Sample CCc1c(C#N)c(SC(C(N)=O)c2ccccc2)nc(N2CCCC(CNC)C2)c1C#N (stereo not shown) ; EC50 observed: < 316 nM

Sample CCc1c(C#N)c(SCc2ccc(NC(=O)CN)cc2)nc(N2CCCN(C)CC2)c1C#N ; EC50 observed: > 31600 nM

Sample CCc1c(C#N)c(SCc2ccc(N(C)S(C)(=O)=O)cc2)nc(N2CCOC(CN)C2)c1C#N (stereo not shown) ; EC50 observed: < 316 nM

Sample CCc1c(C#N)c(SCc2ccc(NC(C)=O)cc2)nc(N2CCCN(C)CC2)c1C#N ; EC50 observed: < 316 nM

Sample CCc1c(C#N)c(S[C@@H](C(N)=O)c2ccccc2)nc(N2CCC(N(C)C)CC2)c1C#N ; EC50 observed: < 316 nM

Sample N#Cc1c(SC(C(N)=O)c2ccccc2)nc(N2CC(NC(=O)C3(N)COC3)C2)c(C#N)c1C1CC1 (stereo not shown) ; EC50 observed: 1000 to 31600 nM

Sample CCc1c(C#N)c(SC(C(N)=O)c2ccccc2)nc(N(C)Cc2cc[nH]n2)c1C#N (stereo not shown) ; EC50 observed: 316 to 1000 nM

Sample CCc1c(C#N)c(SC(C(N)=O)c2ccc(F)cc2)nc(N2CCNCC2)c1C#N (stereo not shown) [Example 196, Trifluoroacetic Acid Salt] ; EC50 observed: < 316 nM

Sample CN1CCN(c2nc(SC(C(N)=O)c3ccccc3)c(C#N)c(C3CC3)c2C#N)CCC1=O (stereo not shown) ; EC50 observed: < 316 nM

Sample CCc1c(C#N)c(S[C@@H](C(N)=O)c2ccccc2)nc(N2CC[C@@](O)(CO)C2)c1C#N ; EC50 observed: 1000 to 31600 nM

Sample CCc1c(C#N)c(SC(C(N)=O)c2ccccc2)nc(N(C)CC(=O)N2CC[C@@H](CO)C2)c1C#N (stereo partly shown) ; EC50 observed: < 316 nM
